Just for reference, paper PMC9482650 is where these values come from.

SYSTEM TESTED: T1, ARHGAP21, Q5T5U3
T1 sequence (Q5T5U3 45-169, limits assumed, looked up): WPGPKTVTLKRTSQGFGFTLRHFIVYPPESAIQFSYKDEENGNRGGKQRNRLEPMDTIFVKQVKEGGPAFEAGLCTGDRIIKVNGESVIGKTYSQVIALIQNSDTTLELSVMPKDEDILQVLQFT
TEST DESCRIPTION: holdup assay
Parameters: key: below the threshold = too weak to quantify, mostly under pKd 3.1 to 4
RUN PARAMETERS: plain residues with an end cap or a label only (N-terminal biotin on a linker: ttds)
READOUT NAME: pKd

binder="VDFPPKESSL [ACVR2A, P27037]" readout_name=pKd reported_value="below the threshold"
binder="EMDRRPATVV [PLCB4, Q15147]" readout_name=pKd reported_value=3.64
binder="RLQRRRETQV [HPV18-E6, P06463]" readout_name=pKd reported_value="below the threshold"
binder="RPLPRKVSQL [DOCK4, Q8N1I0]" readout_name=pKd reported_value="below the threshold"
binder="RHTTSTETAV [HPV30-E6, P36809]" readout_name=pKd reported_value="below the threshold"
